Biological target: Fibroblast growth factor 10 (Homo sapiens) (UniProt O15520)
Sequence (O15520 whole entry, looked up): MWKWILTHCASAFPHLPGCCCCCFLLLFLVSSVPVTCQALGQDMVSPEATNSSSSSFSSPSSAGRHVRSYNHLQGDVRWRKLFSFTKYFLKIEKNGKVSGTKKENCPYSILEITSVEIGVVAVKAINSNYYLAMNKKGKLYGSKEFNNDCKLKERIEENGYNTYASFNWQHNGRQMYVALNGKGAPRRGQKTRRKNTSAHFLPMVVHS
Test: FGF10 binders on small-molecule microarrays, primary screen, biochemical, small-molecule microarray, 635 nm fluorescence (AID 1102)
Settings: FGF10 binding, fluorescence 635 nm, higher = more signal
Mark True for reported composite z-score of 0.1 or greater; mark False for anything smaller.

For orientation, consider the following solved cases.
CO[C@@H]1COC(=O)CC=C[C@@H](C)[C@@H]2C=C[C@@H](O)[C@@H](COC(=O)CC=C[C@H]1C)O2    True
COC(=O)[C@]1(CO)N=C(c2ccc(OCCCO)cc2)O[C@@H]1c1ccccc1N=[N+]=[N-]    True

input: State whether the measured composite z-score reaches 0.1, counting equality as reaching it, for O=C1C[C@@H](O)[C@@H](O)[C@@H]2[C@@H]3C(=O)N(Cc4ccc5c(c4)OCO5)C(=O)[C@@H]3CC[C@@H]12
output: True

input: Does C[C@@H](c1ccccc1)N1C(=O)[C@H]2[C@H]3[C@H](O)[C@H](O)CC(=NOC[C@@H](O)COCc4ccco4)[C@@H]3CC[C@H]2C1=O have a reported composite z-score of at least 0.1?
output: False

input: hey, is composite z-score for this one >= 0.1? CCOC(=O)[C@H](CC(C)C)NC(=O)CCC1CC(OC(=O)NCc2cccc3ccccc23)CC2(CCCC(COC(=O)NCCc3ccccc3OC)O2)O1 (some centres undefined)
output: True
